Measured IC50 (Mu-type opioid receptor (Cavia porcellus, UniProt P97266))
Positions of bridges follow the written chain, without caps; N, C: chain ends. Residues, ends and D or L forms follow the SMILES beside them.
Response body: numeric value in nM, unit text excluded.

| compound | experimental endpoint | measurement |
| --- | --- | --- |
| CC[C@H](C)[C@@H]1NC(=O)[C@H](CCCN=C(N)N)NC(=O)[C@H](CCCN=C(N)N)NC(=O)[C@@H](NC(=O)[C@H](Cc2ccccc2)NC(=O)CNC(=O)CNC(=O)[C@@H](N)Cc2ccc(O)cc2)CSSC[C@@H](C(N)=O)NC(=O)[C@@H]2CCCN2C(=O)[C@H](CCCN=C(N)N)NC1=O (H-YGGFCRRIRPC-NH2; disulfide 5-11) | IC50 | 0.027 |
| CC(C)C[C@@H]1NC(=O)[C@H](CCCCN)NC(=O)[C@@H]2CCCN2C(=O)[C@H](CCCNC(=N)N)NC(=O)[C@H](NC(=O)[C@H](CCCNC(=N)N)NC(=O)[C@H](CCCNC(=N)N)NC(=O)[C@H](CC(C)C)NC(=O)[C@H](Cc2ccccc2)NC(=O)CNC(=O)CNC(=O)[C@@H](N)Cc2ccc(O)cc2)CSSC[C@@H](C(N)=O)NC1=O | IC50 | 10.3 |
| CC(C)C[C@@H]1NC(=O)[C@H](CCCCN)NC(=O)[C@@H]2CCCN2C(=O)[C@H](CCCN=C(N)N)NC(=O)[C@@H](NC(=O)[C@H](CCCN=C(N)N)NC(=O)[C@H](CCCN=C(N)N)NC(=O)[C@H](CC(C)C)NC(=O)[C@H](Cc2ccccc2)NC(=O)CNC(=O)CNC(=O)[C@@H](N)Cc2ccc(O)cc2)CSSC[C@@H](C(N)=O)NC1=O | IC50 | 0.986 |
| CC[C@H](C)[C@H](NC(=O)[C@H](CCCN=C(N)N)NC(=O)[C@H](CCCN=C(N)N)NC(=O)[C@H](CC(C)C)NC(=O)[C@H](Cc1ccccc1)NC(=O)CNC(=O)CNC(=O)[C@@H](N)Cc1ccc(O)cc1)C(=O)N[C@@H](CCCN=C(N)N)C(=O)N1CCC[C@H]1C(=O)N[C@@H](CCCCN)C(=O)N[C@@H](CC(C)C)C(=O)N[C@@H](CCCCN)C(N)=O | IC50 | 1.29 |

Problem: Which measured IC50 value corresponds to C[C@H]1NC(=O)[C@H](CCCNC(=N)N)NC(=O)[C@H](CCCNC(=N)N)NC(=O)[C@@H](NC(=O)[C@H](Cc2ccccc2)NC(=O)CNC(=O)CNC(=O)[C@@H](N)Cc2ccc(O)cc2)CSSC[C@@H](C(N)=O)NC(=O)[C@@H]2CCCN2C(=O)[C@H](CCCNC(=N)N)NC1=O ?
Solution: 2.3

Problem: Which measured IC50 value corresponds to CC(C)C[C@H](NC(=O)[C@H](Cc1ccccc1)NC(=O)CNC(=O)CNC(=O)[C@@H](N)Cc1ccc(O)cc1)C(=O)N[C@@H](CCCN=C(N)N)C(=O)N[C@@H](CCCN=C(N)N)C(=O)N[C@@H]1CSSC[C@H](C(N)=O)NC(=O)[C@H](CC(C)C)NC(=O)[C@H](CCCCN)NC(=O)[C@@H]2CCCN2C(=O)[C@H](CCCN=C(N)N)NC1=O ?
Solution: 0.362

Problem: Which measured IC50 value corresponds to CC[C@H](C)[C@H](NC(=O)[C@H](CCCN=C(N)N)NC(=O)[C@H](CCCN=C(N)N)NC(=O)[C@H](CC(C)C)NC(=O)[C@H](Cc1ccccc1)NC(=O)CNC(=O)CNC(=O)[C@@H](N)Cc1ccc(O)cc1)C(=O)N[C@@H](CCCN=C(N)N)C(=O)N1CCC[C@H]1C(=O)N[C@@H](CCCCN)C(N)=O ?
Solution: 1.08

----------
Biological target: Opioid receptor (Mus musculus) (UniProt P42866+P32300+P33534)
Sequence (P32300 whole entry, looked up): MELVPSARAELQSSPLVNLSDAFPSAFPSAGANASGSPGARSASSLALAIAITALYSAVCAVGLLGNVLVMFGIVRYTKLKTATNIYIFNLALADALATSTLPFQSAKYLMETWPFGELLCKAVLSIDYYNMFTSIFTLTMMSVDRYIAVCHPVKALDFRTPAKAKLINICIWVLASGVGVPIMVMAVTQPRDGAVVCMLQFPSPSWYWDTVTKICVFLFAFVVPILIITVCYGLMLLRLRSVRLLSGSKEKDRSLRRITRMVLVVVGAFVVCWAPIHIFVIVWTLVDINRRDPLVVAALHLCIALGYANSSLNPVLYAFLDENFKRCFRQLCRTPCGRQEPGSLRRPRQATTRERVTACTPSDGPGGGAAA
Sequence (P33534 whole entry, looked up): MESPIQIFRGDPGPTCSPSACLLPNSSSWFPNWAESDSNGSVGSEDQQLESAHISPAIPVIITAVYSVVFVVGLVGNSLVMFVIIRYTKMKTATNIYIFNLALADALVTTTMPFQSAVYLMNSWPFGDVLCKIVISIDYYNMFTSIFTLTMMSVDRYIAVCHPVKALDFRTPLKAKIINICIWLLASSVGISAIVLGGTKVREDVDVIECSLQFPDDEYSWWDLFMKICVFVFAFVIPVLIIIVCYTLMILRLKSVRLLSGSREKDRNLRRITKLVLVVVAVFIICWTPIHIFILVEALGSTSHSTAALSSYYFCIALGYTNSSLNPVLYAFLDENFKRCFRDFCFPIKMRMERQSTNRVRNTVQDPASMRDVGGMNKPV
Sequence (P42866 whole entry, looked up): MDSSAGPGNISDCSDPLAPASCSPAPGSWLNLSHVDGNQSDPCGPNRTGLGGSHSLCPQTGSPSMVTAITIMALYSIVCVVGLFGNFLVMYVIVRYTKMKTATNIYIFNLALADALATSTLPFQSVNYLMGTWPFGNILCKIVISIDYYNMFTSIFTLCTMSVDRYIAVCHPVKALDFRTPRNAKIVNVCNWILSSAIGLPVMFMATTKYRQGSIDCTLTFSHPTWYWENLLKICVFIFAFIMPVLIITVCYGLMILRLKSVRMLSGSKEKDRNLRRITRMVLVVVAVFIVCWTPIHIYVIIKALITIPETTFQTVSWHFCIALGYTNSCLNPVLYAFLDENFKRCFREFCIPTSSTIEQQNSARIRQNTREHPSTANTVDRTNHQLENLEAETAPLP
Test: Opioid receptors antagonist activity in smooth-muscle tissue mouse vas deferens (MVD) in presence of CTAP
Assay type: functional, tissue-based
Positions of bridges follow the written chain, without caps; N, C: chain ends. Residues, ends and D or L forms follow the SMILES beside them.
Could you label it TRUE if measured Ke is 400 nM or higher, and FALSE otherwise?

| compound | cat |
| --- | --- |
| CC[C@H](C)[C@@H]1NC(=O)[C@H](CCCN=C(N)N)NC(=O)[C@H](CCCN=C(N)N)NC(=O)[C@@H](NC(=O)[C@H](Cc2ccccc2)NC(=O)CNC(=O)CNC(=O)[C@@H](N)Cc2ccc(O)cc2)CSSC[C@@H](C(N)=O)NC(=O)[C@@H]2CCCN2C(=O)[C@H](CCCN=C(N)N)NC1=O (H-YGGFCRRIRPC-NH2; disulfide 5-11) | TRUE |
| CC(C)C[C@H](NC(=O)[C@H](Cc1ccccc1)NC(=O)CNC(=O)CNC(=O)[C@@H](N)Cc1ccc(O)cc1)C(=O)N[C@@H](CCCN=C(N)N)C(=O)N[C@@H](CCCN=C(N)N)C(=O)N[C@@H]1CSSC[C@H](C(N)=O)NC(=O)[C@H](CC(C)C)NC(=O)[C@H](CCCCN)NC(=O)[C@@H]2CCCN2C(=O)[C@H](CCCN=C(N)N)NC1=O | TRUE |
| C[C@H]1NC(=O)[C@H](CCCN=C(N)N)NC(=O)[C@H](CCCN=C(N)N)NC(=O)[C@@H](NC(=O)[C@H](Cc2ccccc2)NC(=O)CNC(=O)CNC(=O)[C@@H](N)Cc2ccc(O)cc2)CSSC[C@@H](C(N)=O)NC(=O)[C@@H]2CCCN2C(=O)[C@H](CCCN=C(N)N)NC1=O | TRUE |

Problem: Check this compound for Ke at or above 400 nM: CC(C)C[C@@H]1NC(=O)[C@H](CCCCN)NC(=O)[C@@H]2CCCN2C(=O)[C@H](CCCN=C(N)N)NC(=O)[C@@H](NC(=O)[C@H](CCCN=C(N)N)NC(=O)[C@H](CCCN=C(N)N)NC(=O)[C@H](CC(C)C)NC(=O)[C@H](Cc2ccccc2)NC(=O)CNC(=O)CNC(=O)[C@@H](N)Cc2ccc(O)cc2)CSSC[C@@H](C(N)=O)NC1=O
Solution: FALSE

Problem: Check this compound for Ke at or above 400 nM: CC(C)C[C@@H]1NC(=O)[C@H](CCCCN)NC(=O)[C@@H]2CCCN2C(=O)[C@H](CCCN=C(N)N)NC(=O)[C@H](NC(=O)[C@H](CCCN=C(N)N)NC(=O)[C@H](CCCN=C(N)N)NC(=O)[C@H](CC(C)C)NC(=O)[C@H](Cc2ccccc2)NC(=O)CNC(=O)CNC(=O)[C@@H](N)Cc2ccc(O)cc2)CSSC[C@@H](C(N)=O)NC1=O
Solution: FALSE

----------
Molecular target: Opioid receptor (Mus musculus, UniProt P42866+P32300+P33534)
Assay: Opioid receptors antagonist activity in smooth-muscle tissue mouse vas deferens (MVD)
Assay type: functional, tissue-based
A collection of molecules and their measured IC50
Response body: numeric value in µM, unit text excluded.

| smiles structure | experimental endpoint | measurement |
| --- | --- | --- |
| C[C@H]1NC(=O)[C@H](CCCN=C(N)N)NC(=O)[C@H](CCCN=C(N)N)NC(=O)[C@@H](NC(=O)[C@H](Cc2ccccc2)NC(=O)CNC(=O)CNC(=O)[C@@H](N)Cc2ccc(O)cc2)CSSC[C@@H](C(N)=O)NC(=O)[C@@H]2CCCN2C(=O)[C@H](CCCN=C(N)N)NC1=O | IC50 | 1.66 |

Problem: Which measured IC50 value corresponds to CC(C)C[C@@H]1NC(=O)[C@H](CCCCN)NC(=O)[C@@H]2CCCN2C(=O)[C@H](CCCN=C(N)N)NC(=O)[C@@H](NC(=O)[C@H](CCCN=C(N)N)NC(=O)[C@H](CCCN=C(N)N)NC(=O)[C@H](CC(C)C)NC(=O)[C@H](Cc2ccccc2)NC(=O)CNC(=O)CNC(=O)[C@@H](N)Cc2ccc(O)cc2)CSSC[C@@H](C(N)=O)NC1=O ?
Solution: 0.0201

Problem: Which measured IC50 value corresponds to CC[C@H](C)[C@H](NC(=O)[C@H](CCCN=C(N)N)NC(=O)[C@H](CCCN=C(N)N)NC(=O)[C@H](CC(C)C)NC(=O)[C@H](Cc1ccccc1)NC(=O)CNC(=O)CNC(=O)[C@@H](N)Cc1ccc(O)cc1)C(=O)N[C@@H](CCCN=C(N)N)C(=O)N1CCC[C@H]1C(=O)N[C@@H](CCCCN)C(=O)N[C@@H](CC(C)C)C(=O)N[C@@H](CCCCN)C(N)=O ?
Solution: 0.0078
